# measurementProtocol: pKa (66% DMF)
# Assay type: physicochemical
resultType: pKa
One number for each entry.

INSERT INTO results (compound, experimentalvalue) VALUES
  ('CC[C@]1(O)C[C@@H]2CN(CCc3c([nH]c4ccccc34)[C@@](C(=O)OC)(c3cc4c(cc3OC)N(C)[C@H]3[C@@](O)(C(=O)NNC(=O)CCC(=O)O)[C@H](O)[C@]5(CC)C=CCN6CC[C@]43[C@@H]65)C2)C1 [Example 1]', 5.1);

# context switch: different compound, same pKa
# get_value(readout='pKa', item= CC[C@]1(O)C[C@@H]2CN(CCc3c([nH]c4ccccc34)[C@@](C(=O)OC)(c3cc4c(cc3OC)N(C)[C@H]3[C@@](O)(C(=O)NNC(=O)CCCC(=O)O)[C@H](O)[C@]5(CC)C=CCN6CC[C@]43[C@@H]65)C2)C1 [Example 8] )
4.8
